Cited source for all entries: patent US7001903B2

For each record, write down the corresponding kill.
Test system: Myzus persicae
assay: Critical concentration test, foliar insecticidal activity against sucking pests (leaf dip, cabbage)
Type: in vivo
condition.summary: compound (III) alone 0.0008% a.i.; evaluation after 7 days; Myzus persicae on cabbage

For orientation, consider the following solved cases.
compound: O=[N+]([O-])/N=C1\NCCN1Cc1ccc(Cl)nc1 [Compound (IIIa)]
measurement.target: Myzus persicae
parameter.measured: kill
obs.value: 78%
--
compound: CN1COCN(Cc2cnc(Cl)s2)/C1=N/[N+](=O)[O-] [Compound (IIIg)]
measurement.target: Myzus persicae
parameter.measured: kill
obs.value: 70%
--
compound: N#C/N=C1\SCCN1Cc1ccc(Cl)nc1 [Compound (III l)]
measurement.target: Myzus persicae
parameter.measured: kill
obs.value: 38%

Lookup: Write kill of CN/C(=N\[N+](=O)[O-])NCc1cnc(Cl)s1 [Compound (IIIk)] ; system used: Myzus persicae
Found: 28%
